TGI values by entry
Tested on: LOX IMVI melanoma
RUN DESCRIPTION: NCI tumour cell line growth inhibition, 48 h
MEASURED PROPERTY: TGI

• CC(=O)OCCOCNC(=S)N/N=C/c1ccc([N+](=O)[O-])o1 = > 100 µM
• COc1cc2c(cc1O)[C@H](C)C(c1ccc(OC)c(OC)c1)O2 (stereo not given in full) = 16 µM
• CCOC(=O)c1csc(NC(=O)CN2CCCC2)n1 = > 100 µM
• CCCCCCOc1ccc(/C=N/Nc2cc(C)nc3ccc(Cl)cc23)cc1 = 2.57 µM
• COc1ccc(C2=CC(C(C)=C(C(N)=O)C(N)=O)C=C(c3ccc(Br)cc3)C2)c(OC)c1 (stereo not given) = > 100 µM
• COc1ccccc1CC(=O)C(O)(C(F)(F)F)C(F)(F)F = > 100 µM
• C=C1C(=O)O[C@H]2[C@H]1CC/C(CNC(=O)c1cc3ccccc3[nH]1)=C\CC[C@@]1(C)O[C@@H]21 = 1.99 µM
• CCOC(=O)/C(=C/c1ccc(OC)cc1)N(CC)CC = > 100 µM
• CC1=C/C(=N\NC(N)=S)C(C(O)(C(F)(F)F)C(F)(F)F)C(C)(C)C1 (stereo not given) = > 10 µM
• O=c1cc(-c2ccc3c(c2)OCO3)[nH]c2cc3c(cc12)OCO3 = > 100 µM

====

Tested on: SNB-78 CNS
RUN DESCRIPTION: NCI tumour cell line growth inhibition, 48 h
TGI values by entry
MEASURED PROPERTY: TGI

• CCCOc1nc(N)c2cnn(C3CCCCO3)c2n1 (stereo unspecified) = > 100 µM
• O=C(NC1C=CCC2C(=O)N(c3ccccc3)C(=O)C12)OCc1ccccc1 (stereo unspecified) = > 100 µM
• Cc1ccc(C(=O)OC(C(=O)O)C(OC(=O)c2ccc(C)cc2)C(=O)O)cc1 (stereo unspecified) (tested in a mixture with another compound) = 33.8 µM
• CN1C(=O)C(=O)N2c3ccc(Cl)cc3C3(c4ccccc4)N=CC12O3 (stereo unspecified) = 33.8 µM
• C[C@@]1(O)CC[C@]2(C)C3CCCC3[C@H]12 (stereo partly specified) = > 100 µM
• N#CCCC[Si]12OCCN(CCO1)CCO2 = > 100 µM
• COc1cc2c(cc1O)[C@H](C)C(c1ccc(OC)c(OC)c1)O2 (stereo partly specified) = 64.7 µM
• O=C(CC1Sc2ccccc2NC1=O)Nc1ccccc1[N+](=O)[O-] (stereo unspecified) = > 100 µM
• COc1cc(-c2cccs2)sc1-c1cccs1 = > 100 µM
• CCOC(=O)C1Sc2ccccc2N=C1C (stereo unspecified) = > 100 µM
• O=C1c2ccccc2C(=O)c2c(/C=C\N3CCCCC3)ccnc21 = 61.8 µM

====

Tested on: HS 578T breast
RUN DESCRIPTION: NCI tumour cell line growth inhibition, 48 h; in the data active = GI50 below about 0.43 µM; inactive = the rest
Labels: active, inactive

• NCCNCCNCCN = inactive
• C=C1C(=O)O[C@H]2[C@H]1CC/C(CNC(=O)c1cc3ccccc3[nH]1)=C\CC[C@@]1(C)O[C@@H]21 = inactive
• COc1c2ccccc2c(OC)c2[nH]c(=O)ccc12 = inactive
• CCNC(=O)C#Cc1ccc2c(C(=Nc3ccc(CN(C)C)cc3)c3ccccc3)c(O)[nH]c2c1 = active
• COc1cc2c(cc1OC)-c1cc(OC)c(OC)cc1C(CN(C)C)C2 (stereo not drawn) = inactive
• COCCn1cc(-c2nc(-c3cc4cccnc4[nH]3)cs2)c2cc(OC)ccc21 = inactive
• O=C1OCC2=C1C(c1cccc(Br)c1)c1cc3c(cc1N2CCO)OCCO3 (stereo not drawn) = active
• COc1ccc(CN2C(=O)C(Cl)=C(Nc3cccc(C(F)(F)F)c3)C2=O)cc1 = inactive
• CCOC(=O)n1cc(C2=C(c3ccc(OC)c(OC)c3)COC2=O)c2ccccc21 = active
• O=C(Nc1cccc(C(F)(F)F)c1)Nc1cccc(C(F)(F)F)c1 = inactive
• Cc1ccc(NC2=C3CCCCC3OC2=O)cc1 (stereo not drawn) = inactive
• COc1cc(-c2nc3sccn3c2-c2ccnc(NCCNS(=O)(=O)c3ccc(F)cc3)n2)ccc1F = inactive
• COc1ccc(Cn2c(Br)c3c(c2Br)-c2nc(N)sc2CC3)cc1 = inactive
• COc1ccc2ncnc(Nc3ccc(OCc4ccccc4)cc3)c2c1 = inactive
• Cc1nnc2ccnn2c1C = inactive
• COC(=O)c1cc2oc(/C=C3/SC(=S)N(NC(C)=O)C3=O)cc2n1C = inactive
• COc1ccc(C(c2cc(OC)c(OC)c(OC)c2)n2cncn2)cc1O (stereo not drawn) = inactive
• CC(=O)N[C@@H](Cc1ccc(OP(=O)(O)O)cc1)C(=O)N[C@H]1CCC(=O)N2CCC[C@@H](C(=O)Nc3cccc4ccccc34)N2C1=O = inactive

====

Tested on: NCI-H522 lung
RUN DESCRIPTION: NCI tumour cell line growth inhibition, 48 h
*1 amine or outer side, *2 acyl side, *3 side chain or, on linkers, in order; H or OH if unused. Where a SMILES comes first, the peptide text is derived from it. Bridges are numbered along the chain shown (N, C = ends). Roman numbers before positions name the chains, in order. [ ]: non-standard residue; d: D form. Actinocin(9to1) = Cc1c2oc3c(C)ccc(C(=O)[*:1])c3nc-2c(C(=O)[*:2])c(N)c1=O; NMeV = CN[CH](C(=O)O)C(C)C; Sar = CNCC(=O)O
Use true when the recorded TGI is no lower than 30 µM; use false when it is lower.

* C[N+]12C=CC=C1C(N1CCCC1)c1scc(-c3ccc(Br)cc3)c12 (centres undefined) | false
* CCOC(=O)C(=[N+]=[N-])C(=O)CN1C(=O)c2ccccc2C1=O | true
* COc1cc(S(=O)(=O)Nc2ccc(-c3csc(N4C(=O)CSC4c4cccc(Oc5ccccc5)c4)n3)cc2)ccc1Cl (centres undefined) | true
* CC(C)=C[C@H]1C[C@H](C)[C@H]2CC[C@H](C)c3c2c1c(C)c1ncoc31 | true
* C=C1C(=O)O[C@H]2[C@H]1CC/C(CNC(=O)c1cc3ccccc3[nH]1)=C\CC[C@@]1(C)O[C@@H]21 | false
* CCCCCCc1cc2cc(-c3cn4ccsc4n3)c(=O)oc2cc1O | true
* CCOC(=O)C1=C(C)N(NC(=O)Nc2ccccc2)C2(N)N(NC(=O)Nc3ccccc3)C(C)=C(C(=O)OCC)C12C(=O)OCC (centres undefined) | true
* CCCCCCOc1ccc(/C=N/Nc2cc(C)nc3ccc(Cl)cc23)cc1 | false
* COC(=O)c1cc2oc(/C=C3/SC(=S)N(NC(C)=O)C3=O)cc2n1C | true
* COC(=O)CC(C)(NS(=O)c1ccc(C)cc1)c1ccccc1 (centres undefined) | true
* O=C1NC2(CCN(CCc3ccccc3)CC2)Oc2ccccc21 | true
* CCOC(=O)C1Sc2ccccc2N=C1C (centres undefined) | true
* [O-][Cl+3]([O-])([O-])[O-].[O]=[Ru]=[O].c1ccc(-c2ccccn2)nc1.c1ccc(-c2ccccn2)nc1 | true
* CCCCCCCCCCCCNC(=S)OC | false
* CCOC(=O)/C(=C/c1ccc(OC)cc1)N(CC)CC | true
* CCn1cnc2c(=S)nc(N)[nH]c21 | true
* Cc1ccc(NC2=C3CCCCC3OC2=O)cc1 (centres undefined) | true
* Cc1c2oc3c(C)ccc(C(=O)NC4C(=O)NC(C(C)C)C(=O)N5CCCC5C(=O)N(C)CC(=O)N(C)C(C(C)C)C(=O)OC4C)c3nc-2c(C(=O)NC2C(=O)NC(C(C)C)C(=O)N3CCCC3C(=O)N(C)CC(=O)N(C)C(C(C)C)C(=O)OC2C)c(N)c1=O (centres undefined) (I: TVP[Sar][NMeV] / II: TVP[Sar][NMeV]; ester I:1-I:C, II:1-II:C; linker I:N-II:N via Actinocin(9to1); configuration not given here) | false
* CN(C)CC1CCCC/C1=N/O (centres undefined) | true
* O=C(/C=C/c1c(O)ccc2ccccc12)c1ccc([N+](=O)[O-])cc1 | true
* COc1ccc2c(c1)[n+]([O-])c(C(N)=O)c(N)[n+]2[O-] | true
* Cc1ccc(S(=O)(=O)N2C3C=CC(C3)[C@@H]2C(Cl)(Cl)Cl)cc1 (some centres undefined) | true
* O=C1/C(=C/c2ccco2)NC(=S)N1CN1CCCCC1 | true
* CCOc1ccc(NC2=CC(=O)C(=O)c3ccccc32)cc1 | false
* C=C(C)C12OC1[C@@]1(C)C(=CC2=O)CCC(O)[C@@H]1C (some centres undefined) | false
* CCOC(=O)n1cc(C2=C(c3ccc(OC)c(OC)c3)COC2=O)c2ccccc21 | true
* C=C1c2nc3ccccc3n2C=C(c2ccc(OC)cc2)N1c1ccc(OC)cc1 | true
* COc1ccc(C(SCCO)(c2ccccc2)c2ccc(OC)cc2)cc1 | false
* O=C1SC(SCc2ccccc2)=NC12CC2c1ccccc1 (centres undefined) | true
* COc1cc(-c2nc3sccn3c2-c2ccnc(NCCNS(=O)(=O)c3ccc(F)cc3)n2)ccc1F | true
* CN(C)C(=S)/N=c1\ssc(=S)n1C1CCCCC1 | true
* C/C(CN1C(=O)c2ccccc2C1=O)=N\NS(=O)(=O)c1ccc(Cl)cc1 | true
* CO[C@](C(=O)OC[C@H]1[C@@H](COC(C)=O)[C@@H]2O[C@H]1c1cc3c(cc12)OCO3)(c1ccccc1)C(F)(F)F | false
* O=C1c2cc3c(cc2CC12Cc1ccc4c(c1C2=O)CCC4)CCCC3 (centres undefined) | true
